Origin of values: paper PMC8387736

# TARGET OR SYSTEM: CYP2E1 (Homo sapiens)
# Sequence (P05181 whole entry): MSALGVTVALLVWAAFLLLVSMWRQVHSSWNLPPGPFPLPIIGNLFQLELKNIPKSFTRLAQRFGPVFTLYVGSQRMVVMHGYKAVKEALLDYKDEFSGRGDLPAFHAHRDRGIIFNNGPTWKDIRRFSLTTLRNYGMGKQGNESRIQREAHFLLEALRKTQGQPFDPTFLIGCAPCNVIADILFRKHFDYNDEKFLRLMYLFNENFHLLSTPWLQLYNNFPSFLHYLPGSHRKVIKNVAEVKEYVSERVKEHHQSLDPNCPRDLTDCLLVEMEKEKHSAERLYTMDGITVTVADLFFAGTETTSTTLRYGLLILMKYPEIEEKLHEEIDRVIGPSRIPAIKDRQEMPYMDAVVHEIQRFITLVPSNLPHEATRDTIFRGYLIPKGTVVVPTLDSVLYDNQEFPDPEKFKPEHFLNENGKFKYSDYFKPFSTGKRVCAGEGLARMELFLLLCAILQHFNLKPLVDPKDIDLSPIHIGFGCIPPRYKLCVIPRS
MEASUREMENT TYPE: IC50 (µM)
One number for each entry, in µM.

Using the record for C=CC(=O)Nc1cccc(Oc2nc(Nc3ccc(N4CCN(C)CC4)c(F)c3)nc3[nH]ccc23)c1 [avitinib, Avitinib] , report its IC50. 57.1

---

# TARGET OR SYSTEM: CYP2B6 (Homo sapiens)
# Sequence (P20813 whole entry): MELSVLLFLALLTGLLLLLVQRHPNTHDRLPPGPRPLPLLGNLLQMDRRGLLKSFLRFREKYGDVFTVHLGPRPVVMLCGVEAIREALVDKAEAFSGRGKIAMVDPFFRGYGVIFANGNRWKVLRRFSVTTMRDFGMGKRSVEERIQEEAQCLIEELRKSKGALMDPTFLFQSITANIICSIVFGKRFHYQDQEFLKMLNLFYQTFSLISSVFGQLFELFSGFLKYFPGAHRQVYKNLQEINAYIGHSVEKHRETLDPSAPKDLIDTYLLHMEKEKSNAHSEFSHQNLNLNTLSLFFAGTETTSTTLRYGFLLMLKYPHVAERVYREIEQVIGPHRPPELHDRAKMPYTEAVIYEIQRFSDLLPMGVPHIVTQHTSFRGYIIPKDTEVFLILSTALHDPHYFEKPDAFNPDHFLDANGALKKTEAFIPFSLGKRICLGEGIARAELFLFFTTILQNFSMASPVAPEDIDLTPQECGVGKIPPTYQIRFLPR
MEASUREMENT TYPE: pIC50
Numbers only, as −log10 of the molar value.

Fill in: pIC50 of C=CC(=O)Nc1cccc(Oc2nc(Nc3ccc(N4CCN(C)CC4)c(F)c3)nc3[nH]ccc23)c1 [avitinib, Avitinib] is ___ 4.65

---

# TARGET OR SYSTEM: UniProt:P05182
# Sequence (P05182 whole entry): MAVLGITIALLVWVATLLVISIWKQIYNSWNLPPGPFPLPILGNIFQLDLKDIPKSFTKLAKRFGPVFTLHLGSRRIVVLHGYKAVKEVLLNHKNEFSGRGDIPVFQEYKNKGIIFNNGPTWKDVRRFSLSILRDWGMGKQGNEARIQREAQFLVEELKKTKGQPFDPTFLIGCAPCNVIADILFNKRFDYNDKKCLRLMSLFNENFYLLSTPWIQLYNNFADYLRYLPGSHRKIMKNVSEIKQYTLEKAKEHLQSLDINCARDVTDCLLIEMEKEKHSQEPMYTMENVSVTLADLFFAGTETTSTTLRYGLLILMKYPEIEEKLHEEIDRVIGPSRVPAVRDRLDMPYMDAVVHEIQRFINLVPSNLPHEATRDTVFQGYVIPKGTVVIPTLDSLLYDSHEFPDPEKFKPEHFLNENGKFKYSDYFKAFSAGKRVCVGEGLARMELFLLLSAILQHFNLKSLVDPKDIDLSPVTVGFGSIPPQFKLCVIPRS
# PROCEDURE TEXT: Inhibition of chlorzoxazone metabolism by avitinib in rat liver microsomes
MEASUREMENT TYPE: IC50 (µM)
Give bare numbers, in µM.

Which IC50 value is on record for C=CC(=O)Nc1cccc(Oc2nc(Nc3ccc(N4CCN(C)CC4)c(F)c3)nc3[nH]ccc23)c1 [avitinib, Avitinib] ? 23.2
